- assayed.system: human GLP-1 receptor (human, UniProt P43220 24-463)
- assay.overview: cell-based or functional assay
Numbered stars: 1 amine (or outer) side, 2 acyl side, 3 side chain; on linkers, the order of the positions; unused ones are H or OH. Square brackets hold non-standard residues; d marks the D form. Side chains are listed from the residue outwards. * marks the point of attachment. C20 diacid = O=C(O)CCCCCCCCCCCCCCCCCCC(=O)*; C18 diacid = O=C(O)CCCCCCCCCCCCCCCCC(=O)*; γGlu = O=C(O)[C@H](CCC(=O)[*:2])N[*:1]; AEEA = NCCOCCOCC(=O)O; Aib = CC(C)(N)C(=O)O
property: hGLP-1R Potency, 1% HSA, EC50 [pM] (pM)
I only need the number, in pM, no unit after it.

{"binder": "Compound 60 (peptide) peptide: Y[Aib]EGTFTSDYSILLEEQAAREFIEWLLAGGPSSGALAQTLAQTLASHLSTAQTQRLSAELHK([AEEA-AEEA-γGlu-C20 diacid])LATLPRTETGSGSP-NH2", "property": "hGLP-1R Potency, 1% HSA, EC50 [pM]", "readout.value": 173}

Continue with the next binder.
Request: Item under review: Compound 14 (peptide) peptide: H[Aib]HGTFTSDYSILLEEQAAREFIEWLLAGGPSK([AEEA-AEEA-γGlu-C18 diacid])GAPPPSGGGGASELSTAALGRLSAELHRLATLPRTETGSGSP-NH2 . Reported hGLP-1R Potency, 1% HSA, EC50 [pM]?
Response: 75.9
